Value source: a melting point compilation (Tetko et al.; mined from patent text by program, amines drawn as free bases though some values may be those of a salt)

Experimental endpoint: melting point

Entry O=C(O)[C@@H]1Cc2ccccc2C[C@H]1C(=O)O (relative stereo) — recorded melting point = 229 to 232 °C

Entry Cc1cc2c(cc1C=O)OCO2 — recorded melting point = 84 to 86 °C

----------
# reported melting point; entries follow

Solved cases (5 shown):
[
  {
    "Compound": "COc1ccc([N+](=O)[O-])cc1N1CCN(C(=O)OC(C)(C)C)CC1",
    "melting point": "136 to 137 °C"
  },
  {
    "Compound": "CCC(C)c1ccc(-n2c(-c3ccc(OCCO)cc3)nc3ccccc3c2=O)cc1 (stereo unspecified)",
    "melting point": "173 to 175 °C"
  },
  {
    "Compound": "CCCN1CCCC(c2ccc(OC)c3c2CC(=O)N3)C1 (stereo unspecified)",
    "melting point": "120 °C"
  },
  {
    "Compound": "Cn1nc(C(=O)NCc2ccc(Cl)cc2)c(=O)c2cc(CN3CCOCC3)ccc21",
    "melting point": "190 to 192 °C"
  },
  {
    "Compound": "CCCC1(C(=O)O)c2ccccc2-c2ccccc21",
    "melting point": "120 to 122 °C"
  }
]

Entry COc1cccc(C(=O)c2sccc2Br)c1 — recorded melting point = 40 °C

Entry Clc1nc(SCc2cccc3ccccc23)nc2c1CCN2 — recorded melting point = 107 to 110 °C

Entry CCC(C)(C(=O)c1ccc(N2CCOCC2)cc1)N1CCOCC1 (stereo unspecified) — recorded melting point = 111 to 114 °C

Entry Fc1ccc2sc(-c3ccc(CBr)cc3)nc2c1 — recorded melting point = 138 to 141 °C

Entry O=C1c2ccccc2C(=O)c2sc(-c3ccc([N+](=O)[O-])o3)nc21 — recorded melting point = > 300 °C

Entry CC(C)Oc1ccc(C(=O)n2nc(Nc3ccc(OCc4ccccc4)cc3)nc2N)cc1 — recorded melting point = 79 to 81 °C

Entry CC(c1oc2ccccc2c(=O)c1-c1cccc(F)c1)n1nc(-c2ccco2)c2c(N)ncnc21 (stereo unspecified) — recorded melting point = 234 to 236 °C

Entry O=Cc1c(O)c(Cl)cc(Cl)c1F — recorded melting point = 58 to 62 °C

Entry CC(c1ccc2[nH]c(-c3cccnc3)nc2c1)n1ccnc1 (stereo unspecified) — recorded melting point = 254 °C

Entry Cn1cc(-c2cc3cccnc3[nH]2)c2cc(C(=O)NC(C)(CO)CO)ccc21 — recorded melting point = 180 to 182 °C

Entry COc1cccc(C#Cc2nc(C)ccc2N)c1 — recorded melting point = 165 to 166 °C

Entry Cn1ccc2cc(N3Cc4c(cccc4[N+](=O)[O-])C3=O)ccc21 — recorded melting point = 267 to 271 °C

Entry CCN(CC)c1ccc2c(c1)Oc1cc(OC(C)=O)c3ccccc3c1N2C(C)=O — recorded melting point = 64 to 72 °C

Entry COc1ccc(/C=C/c2c(Cl)cncc2Cl)c2c1OCCCO2 — recorded melting point = 118 to 120 °C

Entry Brc1ccc(-c2ccc(-c3ccc(Br)s3)c3nsnc23)s1 — recorded melting point = 247 to 248 °C

Entry CCCCCCCCCCCCCCCCCCOc1cc(NC(=O)OCc2ccccc2)cc(OCCCOc2ccccc2)c1 — recorded melting point = 68 to 69 °C

----------
# reported melting point; entries follow

Solved cases (8 shown):
[
  {
    "Compound": "CCCc1c(CNc2ccc(C(=O)O)cc2)ccc(C(C)=O)c1O",
    "Observed result": "202 to 204 °C"
  },
  {
    "Compound": "COc1cccc(C2(O)CCN(C)CC2)c1",
    "Observed result": "111 to 113 °C"
  },
  {
    "Compound": "O=Cc1ccc2ccccc2c1OCc1ccccc1",
    "Observed result": "62 to 63 °C"
  },
  {
    "Compound": "Cc1cc(C(=O)N2CCN(c3c(C#N)c(=O)n(Cc4ccc(F)cc4)c4ccccc34)CC2)no1",
    "Observed result": "123 to 135 °C"
  },
  {
    "Compound": "Cc1cc(C#N)cc(C(=O)Nc2ccc(F)cn2)n1",
    "Observed result": "204 °C"
  },
  {
    "Compound": "Cc1nnc(CN2C(=O)c3ccccc3C2=O)n1-c1ccc(Cl)cc1C(=O)c1ccccc1",
    "Observed result": "215 to 218 °C"
  },
  {
    "Compound": "CCOC(=O)/C(=N\\O)N1N=C(N)C(Cc2ccccc2)C1=O (stereo unspecified)",
    "Observed result": "102 to 108 °C"
  },
  {
    "Compound": "Cc1cc(Nc2cncc(-c3ccccc3)n2)n[nH]1",
    "Observed result": "232 to 234 °C"
  }
]

Entry O=C(O)C1=CC2=CCCC=C2Sc2c1ccc1c2CCC1 — recorded melting point = 77 °C

Entry O=S(=O)(c1ccc(Cl)c(CBr)c1Cl)N1CCCC1 — recorded melting point = 115 °C

Entry O=C1c2cccc3c(Br)ccc(c23)C(=O)N1O — recorded melting point = 248 to 251 °C

Entry CCOP(=O)(Cc1ccc(NC(=O)CCCc2cnoc2-c2ccccc2)cc1)OCC — recorded melting point = 128 to 129 °C

Entry Cc1cnc2c(-c3nc[nH]n3)c(Cl)ccc2c1 — recorded melting point = 274 to 276 °C

Entry COc1ccc(CC(=O)C=NN=P(c2ccccc2)(c2ccccc2)c2ccccc2)cc1 — recorded melting point = 111 to 112 °C

Entry CSCc1ccc(-c2cccnc2)o1 — recorded melting point = 67 to 68 °C

Entry COc1cc(Br)c(OC(=O)c2ccc(OC)c(C(F)(F)F)c2)c(NC(=O)c2ccc(OC)c(C(F)(F)F)c2)c1 — recorded melting point = 205 to 208 °C

Entry CN(C)Cc1ccc(CSCCNc2nc(C(O)c3ccccc3)nn2C)o1 (stereo unspecified) — recorded melting point = 121 to 122 °C

Entry CCOC(=O)CN=C(c1ccccc1)c1ccccc1NC1CCN(C)CC1 — recorded melting point = 102 to 103 °C

Entry Cc1oc(-c2ccc3ccccc3c2)nc1COc1ccc(COc2ncccc2C#N)cc1 — recorded melting point = 145 to 146 °C

Entry CCOC(=O)c1cnc2c(C(F)(F)F)cc(-c3ccc(C(F)(F)F)cc3)cn12 — recorded melting point = 132 °C

Entry Cc1cc(C)n(-c2ccc(N(C)N)nn2)n1 — recorded melting point = 93 to 94 °C
